Give measured Absolute mRNA transfection efficiency in Hela cells for each item. Keep answers brief.
- Tested on: Hela cells
- assay_protocol: Transfection of Hela cell line, mRNA vectors
- Assay type: cell-based
- measurement_conditions: 50 ng EGFP mRNA per well
Kindly provide the numeric value in % only, without the unit symbol.

Provide only the value of recorded Absolute mRNA transfection efficiency in Hela cells for "CCCCCCCCCNc1nc(NCC2CCN(C)CC2)nc(SCCCCCCCCC)n1"
17.6

Provide only the value of recorded Absolute mRNA transfection efficiency in Hela cells for "CCCCCCCCCCCCSc1nc(NCC2CCN(C)CC2)nc(SCCCCCCCC)n1"
11.7

Provide only the value of recorded Absolute mRNA transfection efficiency in Hela cells for "CCCCCCCCCCCNc1nc(NCCCN(C)C)nc(SCCCCCCCCC)n1"
27.7

---

- System: HEK293 cells
- assay_protocol: Preliminary screening as mRNA vectors, EGFP mRNA transfection of HEK293 cells
- Assay type: cell-based
- measurement_conditions: HEK293 cells, 96-well plates, EGFP mRNA 50 ng per well; percentage of GFP fluorescent cells relative to total number of cells (Hoechst)
measured_endpoint: Absolute mRNA transfection efficiency in HEK293 cells (%)
Kindly provide the numeric value in % only, without the unit symbol.

Provide only the value of recorded Absolute mRNA transfection efficiency in HEK293 cells for "CCCCCCCCCCCCCCSc1nc(NCCN2CCCCC2)nc(SCCCCCCCCCC)n1"
0.2

Provide only the value of recorded Absolute mRNA transfection efficiency in HEK293 cells for "CCCCCCCCCCCCNc1nc(NCCCCCCCCC)nc(NCCCN2CCOCC2)n1"
0.0

Provide only the value of recorded Absolute mRNA transfection efficiency in HEK293 cells for "CCCCCCCCCCCCNc1nc(NCCCCCCCCC)nc(NCCN2CCN(C)CC2)n1"
3.8

Provide only the value of recorded Absolute mRNA transfection efficiency in HEK293 cells for "CCCCCCCCCCCCCCCCCCNc1nc(NCCCCCC)nc(NCCN2CCCCC2)n1"
0.2

Provide only the value of recorded Absolute mRNA transfection efficiency in HEK293 cells for "CCCCCCCCCCCCCCCCSc1nc(NCCN2CCOCC2)nc(SCCCCCCCCCCCCCCC)n1"
0.7

Provide only the value of recorded Absolute mRNA transfection efficiency in HEK293 cells for "CCCCCCCCCCCCCNc1nc(NCCCCCCC)nc(NCCN(C)C)n1"
0.4

Provide only the value of recorded Absolute mRNA transfection efficiency in HEK293 cells for "CCCCCCCCCCCCCCCCNc1nc(NCCN2CCCCC2)nc(N(CCCCCCCCCCCC)CCCCCCCCCCCC)n1"
0.0

Provide only the value of recorded Absolute mRNA transfection efficiency in HEK293 cells for "CCCCCCNc1nc(NCCCCCC)nc(NCCCN(C)C)n1"
0.0

Provide only the value of recorded Absolute mRNA transfection efficiency in HEK293 cells for "CCCCCCCCCCCCCNc1nc(NCCN2CCN(C)CC2)nc(N(CCCCCCCCCCCC)CCCCCCCCCCCC)n1"
4.9

Provide only the value of recorded Absolute mRNA transfection efficiency in HEK293 cells for "CCCCCCCNc1nc(NCCCCCCC)nc(NCCCN2CCN(C)CC2)n1"
0.0

Provide only the value of recorded Absolute mRNA transfection efficiency in HEK293 cells for "CCCCCCCCCCCCCCSc1nc(NCCN2CCCCC2)nc(SCCCCCCCCCCCC)n1"
14.0

Provide only the value of recorded Absolute mRNA transfection efficiency in HEK293 cells for "CCCCCCCCCCCCCCCCSc1nc(NCCN2CCN(C)CC2)nc(SCCCCCCCCCCCCCCC)n1"
0.2

Provide only the value of recorded Absolute mRNA transfection efficiency in HEK293 cells for "CCCCCCCCCCCCCCCCCCNc1nc(NCCCCCC)nc(NCCCN2CCOCC2)n1"
0.0

Provide only the value of recorded Absolute mRNA transfection efficiency in HEK293 cells for "CCCCCCCCCCCNc1nc(NCCCCCCCCC)nc(NCCN(CC)CC)n1"
0.8

Provide only the value of recorded Absolute mRNA transfection efficiency in HEK293 cells for "CCCCCCCCCCCCCCCCCCNc1nc(NCCCCCCC)nc(NCCN2CCOCC2)n1"
0.0

Provide only the value of recorded Absolute mRNA transfection efficiency in HEK293 cells for "CCCCCCCCCCCSc1nc(NCCN2CCN(C)CC2)nc(SCCCCCCCCC)n1"
48.6

Provide only the value of recorded Absolute mRNA transfection efficiency in HEK293 cells for "CCCCCCCCCCCCN(CCCCCCCCCCCC)c1nc(NCCCCCCCC)nc(NCCN2CCOCC2)n1"
1.4
